Test system: HMLE_sh_eGFP viability, CellTiter-Glo luminescence, 72 h
Assay: cytotoxicity in HMLE control line with eGFP shRNA, dose response, counter-screen for HMLE_sh_ECad selective toxicity project, cell-based, HMLE_sh_eGFP, luminescence (AID 463074);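 also: counterscreen control line to flag general toxicity for the HMLE_sh_ECad screen; potency for loss of viability as luminescence drops below DMSO wells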
Activity calls are given as the source filed them.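 The calls were made as follows: active = AC50 no more than tenfold above the top dose tested, or full inhibition at every dose with a flat fit (cut at about 19 µM in these data); inconclusive = flat curve fit with inhibition between 30% and 70%, or poor fit; inactive = AC50 more than tenfold above the top dose tested.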
Labels: active, inactive

INSERT INTO measurements (compound, label) VALUES
  ('CC(C)C[C@@H](CO)N(Cc1ccccc1)S(=O)(=O)N(Cc1ccccc1)[C@@H](CO)CC(C)C', 'active'),
  ('CCc1ccc(-c2cc(C(=O)N/N=C/c3c[nH]c4ccccc34)[nH]n2)cc1', 'active'),
  ('Cc1ccc2sc(N(CCCN(C)C)C(=O)c3ccc(S(=O)(=O)N(C)C4CCCCC4)cc3)nc2c1C', 'active'),
  ('CCOc1cc(NC(=O)c2ccccn2)c(OCC)cc1NC(=O)c1ccccc1', 'inactive'),
  ('CCCCOc1ccc(C(=O)C(CN2CCOCC2)c2ccccc2)cc1 (stereo not given)', 'active'),
  ('CCCCCCc1cc2cc(C(=O)Nc3ccccc3)c(=O)oc2cc1O', 'active'),
  ('CC[C@@H]1CC=C[C@H]2[C@H]1C(=O)N(Cc1ccccc1)[C@H]2c1ccc(OC)c(Cl)c1', 'active'),
  ('O=C(NCCc1ccccc1)c1cc(-c2ccccc2)c(N2CCOCC2)s1', 'active'),
  ('COc1ccc([C@H]2Oc3cc(O)cc(O)c3C(=O)C2[C@@H]2C(=O)c3c(O)cc(O)cc3O[C@@H]2c2ccc(OC)cc2)cc1 (stereo not given in full)', 'active'),
  ('CN1CCN(c2ccc([N+](=O)[O-])c(NCc3ccco3)c2)CC1', 'active');

----------
// reported AC50 per item
Tested on: HMLE_sh_eGFP viability, CellTiter-Glo luminescence, 72 h
Test: cytotoxicity in HMLE control line with eGFP shRNA, dose response, counter-screen for HMLE_sh_ECad selective toxicity project, cell-based, HMLE_sh_eGFP, luminescence (AID 463074);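 also: counterscreen control line to flag general toxicity for the HMLE_sh_ECad screen; potency for loss of viability as luminescence drops below DMSO wells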
The source made the active and inactive calls.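 Rule for the calls: active = AC50 no more than tenfold above the top dose tested, or full inhibition at every dose with a flat fit (cut at about 19 µM in these data); inconclusive = flat curve fit with inhibition between 30% and 70%, or poor fit; inactive = AC50 more than tenfold above the top dose tested.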
assayReadout: AC50

INSERT INTO measurements (molecule, reading) VALUES
  ('C[C@@H]1CN([C@H](C)CO)C(=O)c2cc(NC(=O)Nc3ccc(C(F)(F)F)cc3)ccc2O[C@H]1CN(C)S(=O)(=O)c1ccc(Cl)cc1', '3.84 µM'),
  ('CCNC(=S)N/N=C/c1cn(Cc2ccc(F)cc2)c2ccccc12', '10.9 µM'),
  ('O=C(Nc1ccc(S(=O)(=O)N2CCOCC2)cc1)c1ccc([N+](=O)[O-])o1', '5.38 µM'),
  ('CC1CCC2C(=O)N(c3ccc(NC4CCCCC4)c([N+](=O)[O-])c3)C(=O)C2C1 (centres undefined)', '4.01 µM'),
  ('O=C(CCc1ccccc1)Nc1sc2c(c1C(=O)O)CCCC2', '> 19.5 µM (inactive)'),
  ('CC1(C)CC[C@]2(CO)[C@@H](O)C[C@]3(C)C(=CCC4[C@@]5(C)CC[C@H](O)C(C)(C)C5CC[C@]43C)[C@@H]2C1 (some centres undefined)', '4.35 µM'),
  ('OCCCNc1nc(-c2ccccc2)c2cc(Br)ccc2n1', '> 19.5 µM (inactive)'),
  ('OCCCCC#Cc1c(-c2ccsc2)sc2ccccc12', '5.56 µM'),
  ('O=C1Nc2ccc(Cl)cc2[C@@](C#CC2CC2)(C(F)(F)F)O1', '7.55 µM'),
  ('CCOC(=O)[C@@H]1[C@H]2COc3cc(OC)ccc3[C@H]2N2C(=O)N(c3ccc(C(F)(F)F)cc3)C(=O)[C@]12C', '4.62 µM'),
  ('Cc1nn(Cc2ccccc2)c(C)c1C(=O)OCC(=O)c1cc(C)n(CC(F)(F)F)c1C', '14 µM'),
  ('COc1ccc(OC)c(-c2csc(NC(=O)c3ccc(F)cc3)n2)c1', '6.89 µM'),
  ('COC(=O)c1cc(=O)n(Cc2ccc(F)cc2)c(=Nc2ccccc2)s1', '5.87 µM'),
  ('S=C(Nc1cc(Cl)cc(Cl)c1)NC1CCN(Cc2ccccc2)CC1', '4.23 µM'),
  ('CC(C)(C)OC(=O)NCc1ccc(NC(=O)c2nc[nH]c2C(=O)NCCCCNC(=O)c2[nH]cnc2C(=O)Nc2ccc(CNC(=O)OC(C)(C)C)cc2)cc1', '2.15 µM'),
  ('CCCCn1c(=O)c(C(=O)NCc2ccccc2)c(O)c2ccccc21', '8.36 µM'),
  ('O=C(NNc1ccc(Cl)cc1)c1cccs1', '1.58 µM'),
  ('O=C(CSc1nc2nc(-c3cccs3)cc(C(F)(F)F)c2c(=O)[nH]1)Nc1c(F)c(F)c(F)c(F)c1F', '3.43 µM'),
  ('COc1cccc(O)c1CN1CCC(C(=O)Nc2ccc(-c3cccc(C)c3)cc2)CC1', '4.06 µM');
